# test-details: In vitro metabolism (metabolic stability) in human liver microsomes
# test-context: human, microsomes, pH 7.4
endpoint-name: microsomal CLint at 1 µM (µL/min/mg)
Express the result in µL/min/mg but write the number alone.

Inquiry: Tell me the measured microsomal CLint at 1 µM of COc1cc(NC(C)CCCN)c2ncccc2c1 (centres unmarked) [Primaquine] , please.
Reply text: 7.7

----------
For each entry below, report its IC50 value.
# target: CYP3A4 (Homo sapiens)
# Sequence (P08684 whole entry): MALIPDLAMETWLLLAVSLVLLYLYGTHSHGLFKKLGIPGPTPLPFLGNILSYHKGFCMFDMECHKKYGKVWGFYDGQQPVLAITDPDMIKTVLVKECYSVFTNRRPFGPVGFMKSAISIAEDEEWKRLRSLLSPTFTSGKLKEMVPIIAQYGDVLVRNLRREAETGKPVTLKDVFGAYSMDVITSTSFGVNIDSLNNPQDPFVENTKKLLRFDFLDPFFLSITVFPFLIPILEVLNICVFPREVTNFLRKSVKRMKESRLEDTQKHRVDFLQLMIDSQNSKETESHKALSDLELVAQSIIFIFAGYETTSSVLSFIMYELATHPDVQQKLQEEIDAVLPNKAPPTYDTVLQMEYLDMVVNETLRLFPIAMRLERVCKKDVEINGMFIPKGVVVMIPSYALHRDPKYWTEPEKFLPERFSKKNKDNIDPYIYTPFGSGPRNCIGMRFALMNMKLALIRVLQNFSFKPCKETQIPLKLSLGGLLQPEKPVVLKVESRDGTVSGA
# test-details: Cytochrome P450 inhibition in human liver microsomes
# test-context: CYP3A4 (test) IC50, human liver microsomes; CYP3A4 (test); highest concentration tested 20 µM

Inquiry: Tell me the measured IC50 of Cc1nc(Nc2ncc(N3CCN(C)[C@H](C)C3)c(Nc3cc(C)n(C)n3)n2)cc(C2CC2)c1F [MMV253] , please.
Reply text: > 20 µM

Inquiry: Next entry: C[C@H]1Cc2c([nH]c3cc(Cl)c(F)cc23)[C@@]2(N1)C(=O)Nc1ccc(Cl)cc12 [KAE609]
Reply text: > 20 µM

Inquiry: Next entry: COc1cc(C)c2c(Oc3cccc(C(F)(F)F)c3)c(OC)cc(NC(C)CCCN)c2n1 (stereo not shown) [Tafenoquine]
Reply text: 3.8 µM

Inquiry: Next entry: C[C@H]1[C@@H](O)O[C@@H]2O[C@@]3(C)CC[C@H]4[C@H](C)CC[C@@H]1[C@@]24OO3 [Dihydroartemisinin]
Reply text: > 20 µM
